tested on: human β-hexosaminidase [human placenta] (HexA/B); test: Determination of IC50 values for inhibition of human β-hexosaminidase; format: biochemical; conditions: ratio
quantity: Selectivity: IC50(human β-hexosaminidase)/IC50(Human OGA)

CNC(=O)C[C@@H]1[C@H](O)[C@H](O)[C@@H](CO)N1CCCCCCO	3355
CNC(=O)C[C@@H]1[C@H](O)[C@H](O)[C@@H](CO)N1CCc1ccccc1	3666
CNC(=O)[C@H]1NC[C@@H](O)[C@@H]1O	1.37

I = CNC(=O)C[C@@H]1N[C@H](CO)[C@@H](O)[C@@H]1O
II = CCCCCCN1[C@H](CO)[C@@H](O)[C@H](O)[C@@H]1CC(=O)NC
In: Could you determine which record has the numerically smaller Selectivity: IC50(human β-hexosaminidase)/IC50(Human OGA)? Candidates: I and II State your choice using its label.
Out: II
(II: 0.44, I: 4.71)

====

# Selectivity: IC50(human β-hexosaminidase)/IC50(Human OGA) annotations
system: human β-hexosaminidase [human placenta] (HexA/B); assay: Determination of IC50 values for inhibition of human β-hexosaminidase; type: biochemical; settings: ratio

In the examples that follow, each entry is paired with its recorded Selectivity: IC50(human β-hexosaminidase)/IC50(Human OGA).
CCCCCCN1[C@H](CO)[C@H](O)[C@@H](O)[C@H]1CC(=O)NCCO	>3.16
CNC(=O)C[C@@H]1[C@H](O)[C@H](O)[C@@H](CO)N1CCCNS(=O)(=O)c1ccc(-c2ccccc2)cc1	>150000
CNC(=O)C[C@@H]1[C@H](O)[C@H](O)[C@@H](CO)N1CCCCCNS(=O)(=O)c1ccc(Oc2ccccc2)cc1	>5000
CCCNC(=O)C[C@H]1N[C@H](CO)[C@@H](O)[C@@H]1O	>2654

In: Endpoint output: Selectivity: IC50(human β-hexosaminidase)/IC50(Human OGA) of CNC(=O)[C@H]1N[C@H](CO)[C@@H](O)[C@@H]1O . Value?
Out: 4.27

In: Endpoint output: Selectivity: IC50(human β-hexosaminidase)/IC50(Human OGA) of CCCCCCN1[C@H](CC(=O)NCCO)[C@H](O)[C@H](O)[C@H]1CO . Value?
Out: >1.39

In: Endpoint output: Selectivity: IC50(human β-hexosaminidase)/IC50(Human OGA) of CC(C)CNC(=O)C[C@H]1N[C@H](CO)[C@@H](O)[C@H]1O . Value?
Out: >2.3

In: Endpoint output: Selectivity: IC50(human β-hexosaminidase)/IC50(Human OGA) of CNC(=O)C[C@H]1[C@@H](O)[C@H](O)[C@H](CO)N1CCCc1ccccc1 . Value?
Out: 0.11

====

# pIC50 annotations
biological target: human β-hexosaminidase [human placenta] (HexA/B); construct: other: human β-hexosaminidase, human placenta; room temperature, thirty minutes; assay: Determination of IC50 values for inhibition of human β-hexosaminidase; details: human β-hexosaminidase, human placenta; room temperature, thirty minutes
pIC50: −log10 of the molar value.

CNC(=O)C[C@@H]1[C@H](O)[C@H](O)[C@@H](CO)N1CCCNS(=O)(=O)c1ccc(-c2ccccc2)cc1 [Compound A072]	< 3.52

In: Endpoint output: pIC50 of CNC(=O)C[C@@H]1N[C@H](CO)[C@@H](O)[C@@H]1O [Compound A045] . Value?
Out: 5.56

In: Endpoint output: pIC50 of CCCCCCN1[C@H](CC(=O)NCCO)[C@H](O)[C@H](O)[C@H]1CO [Compound A028] . Value?
Out: ≤ 3.52

====

Target: human OGA (Homo sapiens, UniProt O60502)
Sequence (O60502 1-916): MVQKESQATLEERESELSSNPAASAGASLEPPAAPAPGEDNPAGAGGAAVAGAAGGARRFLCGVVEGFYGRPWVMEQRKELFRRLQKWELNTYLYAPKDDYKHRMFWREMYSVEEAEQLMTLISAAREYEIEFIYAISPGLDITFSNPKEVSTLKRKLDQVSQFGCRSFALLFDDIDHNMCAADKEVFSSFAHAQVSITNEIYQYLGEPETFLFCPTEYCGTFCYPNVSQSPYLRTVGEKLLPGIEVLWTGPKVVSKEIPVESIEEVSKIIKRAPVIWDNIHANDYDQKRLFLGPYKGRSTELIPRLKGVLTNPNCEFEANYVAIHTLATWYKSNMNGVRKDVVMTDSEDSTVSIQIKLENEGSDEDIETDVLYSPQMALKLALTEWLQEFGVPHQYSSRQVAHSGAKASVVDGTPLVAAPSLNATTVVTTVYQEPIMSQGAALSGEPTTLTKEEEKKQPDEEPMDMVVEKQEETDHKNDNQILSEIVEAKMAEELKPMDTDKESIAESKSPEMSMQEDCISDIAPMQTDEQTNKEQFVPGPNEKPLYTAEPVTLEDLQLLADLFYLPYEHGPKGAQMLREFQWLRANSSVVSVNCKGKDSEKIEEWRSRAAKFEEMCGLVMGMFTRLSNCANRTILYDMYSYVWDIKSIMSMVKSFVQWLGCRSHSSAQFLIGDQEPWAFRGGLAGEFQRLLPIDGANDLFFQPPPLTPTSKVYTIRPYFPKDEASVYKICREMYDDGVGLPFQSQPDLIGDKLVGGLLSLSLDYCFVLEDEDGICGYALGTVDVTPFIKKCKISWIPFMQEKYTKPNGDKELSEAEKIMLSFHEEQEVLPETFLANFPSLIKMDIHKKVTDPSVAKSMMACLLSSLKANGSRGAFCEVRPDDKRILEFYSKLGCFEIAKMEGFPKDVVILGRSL
quantity: IC50 (µM)

In the examples that follow, each entry is paired with its recorded IC50.
CCNC(=O)C[C@H]1N[C@H](CO)[C@@H](O)[C@@H]1O [Compound A050]	0.412
O=C(C[C@@H]1[C@H](O)[C@H](O)[C@@H](CO)N1CCCc1ccccc1)NCCO [Compound A029]	125

A = CCNC(=O)C[C@@H]1[C@@H](O)[C@H](O)[C@@H](CO)N1CCCc1ccc(Cl)cc1 [Compound A063]
B = CCCNC(=O)C[C@@H]1[C@H](O)[C@H](O)[C@@H](CO)N1CCCCCCCCCO [Compound A005]
C = CCCCCCN1[C@H](CC(=O)NC)[C@H](O)[C@H](O)[C@@H]1CO [Compound A036]
D = CNC(=O)[C@H]1NC[C@@H](O)[C@@H]1O [Compound A043]
E = CCCCNC(=O)C[C@H]1N[C@H](CO)[C@@H](O)[C@H]1O [Compound A002]
In: Arrange items by their IC50 values in increasing order. A ranking is expressed here by listing the labels in the requested order.
Out: A, B, D, E, C
(A: 0.036 µM, B: 0.144 µM, D: 10.2 µM, E: 75 µM, C: 136 µM)

====

biological target: human β-hexosaminidase [human placenta] (HexA/B); construct: other: human β-hexosaminidase, human placenta; room temperature, thirty minutes; test: Determination of IC50 values for inhibition of human β-hexosaminidase; details: human β-hexosaminidase, human placenta; room temperature, thirty minutes
pIC50: −log10 of the molar value.
# pIC50 annotations

In: Endpoint output: pIC50 of CC(=O)NC[C@@H]1[C@H](O)[C@H](O)[C@@H](CO)N1CCCc1ccccc1 [Compound A038] . Value?
Out: < 3.52

In: Endpoint output: pIC50 of CCCCCCN1[C@H](CO)[C@@H](O)[C@H](O)[C@@H]1CC(=O)NCC [Compound A054] . Value?
Out: < 3.52

In: Endpoint output: pIC50 of CCCCCCN1[C@H](CO)[C@H](O)[C@@H](O)[C@H]1CC(=O)NCCO [Compound A030] . Value?
Out: < 3.52

In: Endpoint output: pIC50 of CNC(=O)C[C@@H]1[C@H](O)[C@H](O)[C@@H](CO)N1CCCCCNS(=O)(=O)c1ccc(C)cc1 [Compound A064] . Value?
Out: 5.00

In: Endpoint output: pIC50 of CCNC(=O)C[C@@H]1[C@@H](O)[C@H](O)[C@@H](CO)N1CCCc1ccc(Cl)cc1 [Compound A063] . Value?
Out: < 3.52

In: Endpoint output: pIC50 of CNC(=O)C[C@@H]1[C@H](O)[C@H](O)[C@@H](CO)N1CCCCCNS(=O)(=O)c1ccc(-c2ccccc2)cc1 [Compound A066] . Value?
Out: 4.96

In: Endpoint output: pIC50 of CNC(=O)C[C@@H]1[C@H](O)[C@H](O)[C@@H](CO)N1CCCCCCCCCO [Compound A009] . Value?
Out: 3.71

In: Endpoint output: pIC50 of CNC(=O)C[C@H]1N[C@H](CO)[C@@H](O)[C@H]1O [Compound A007] . Value?
Out: < 3.52

In: Endpoint output: pIC50 of CCNC(=O)C[C@@H]1[C@@H](O)[C@H](O)[C@@H](CO)N1CCCc1ccc(Sc2ccccc2)cc1 [Compound A071] . Value?
Out: < 3.52

In: Endpoint output: pIC50 of CCCNC(=O)C[C@@H]1[C@H](O)[C@H](O)[C@@H](CO)N1CCCCc1ccccc1 [Compound A022] . Value?
Out: < 3.52
